assay: in vitro; conditions: rat
pIC50: −log10 of the molar value.
Assay metric: pIC50

>>> df
                                   compound  obs_value
0  CCCCC(CC)C(=O)Oc1c(OC)cc(C2c3cc4c(cc3C(O)C3COC(=O)C23)OCO4)cc1OC (stereo not shown)       4.22

* * *

target: recombinant XooFtsZ GTPase (Xanthomonas oryzae pv. oryzae); assay: biochemical
Where a name gives a salt, the structure may show the parent alone.
Assay metric: IC50 (µM)

In [3]: df
Out[3]:
                                   compound  obs_value
0  COc1ccc2cc3[n+](cc2c1OC)CCc1cc2c(cc1-3)OCO2 [Berberine, Berberine hydrochloride]        225
1  CCCCC(CC)C(=O)Oc1c(OC)cc(C2c3cc4c(cc3C(O)C3COC(=O)C23)OCO4)cc1OC (centres unmarked) [B2]        159

Values from paper PMC9408963
